Measured values drawn from patent EP4671273A1 for this set.

In this section we review reported pKd values for a set of binders.
biological target: T1, Recombinant hIL-21-Fc (AcroBiosystems) (human, UniProt Q9HBE4 30-162); assay: SPR, Fab on captured rhIL-21-Fc
T1 construct: bought; also called rhIL-21; not shown: Fc of the bought reagent, not described
T1 sequence (Q9HBE4 30-162): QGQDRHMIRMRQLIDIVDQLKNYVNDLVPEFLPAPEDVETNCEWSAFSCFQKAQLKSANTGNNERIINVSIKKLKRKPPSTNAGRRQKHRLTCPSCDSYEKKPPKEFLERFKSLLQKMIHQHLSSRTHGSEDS
# reply with the number alone; pKd is -log10 of concentration in mol/L

Below, each entry is followed by its recorded pKd result.
# binder, pKd
measured = [
    ("ZAP122m4 Fab (Fab, V domains shown, Fab) VH: QVQLQESGPGLVKPSETLSLTCTVSGGSISSDFWGWIRQPPGKGLEWIGYISSRGSTNYNPSLKRRVTISVDTSRNQFSLKLSSVTAADTAVYYCARSAGVTDFDFWGQGTLVTVSS VL: DIQMTQSPSSVSASVGDRVTITCRASQGISSWLAWYQHKPGKAPKLLIYVASSLQSGVPSRFSGSGSGTDFTLTISSLQPEDFATYYCAQANSFPLTFGGGTKVEIK", 8.46),
    ("ZAP122m6 Fab (Fab, V domains shown, Fab) VH: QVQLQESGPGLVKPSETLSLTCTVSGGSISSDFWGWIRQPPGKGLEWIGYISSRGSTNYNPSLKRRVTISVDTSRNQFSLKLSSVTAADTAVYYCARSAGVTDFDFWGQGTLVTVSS VL: DIQMTQSPSSVSASVGDRVTITCRASQGISSWLAWYQHKPGKAPKLLIYVASSLQSGVPSRFSGSGSGTDFTLTISSLQPEDFATYYCQQAASFPLTFGGGTKVEIK", 10.42),
]

Okay, now this binder:
Prompt line: Need pKd, item ZAP122m22 Fab (Fab, V domains shown, Fab) VH: QVQLQESGPGLVKPSETLSLTCTVSGGSISSDFWGWIRQPPGKGLEWIGYISSRGSTNYNPSLKRRVTISVDTSRNQFSLKLSSVTAADTAVYYCARSAGATDFDFWGQGTLVTVSS VL: DIQMTQSPSSVSASVGDRVTITCRASQGISSWLAWYQHKPGKAPKLLIYVASSLQSGVPSRFSGSGSGTDFTLTISSLQPEDFATYYCQQANSFPLTFGGGTKVEIK
Response line: 8.06
